study_system: T1, soluble human FcRn (human, UniProt P55899 24-297; P61769 21-119, biotinylated (Sulfo-NHS-LC-Biotin) in the ELISA; amine-coupled to CM5 chip in SPR)
T1 construct: also called shFcRn; biotinylated shFcRn
T1 sequence (P55899 24-297 limits assumed, chain 1 of 2): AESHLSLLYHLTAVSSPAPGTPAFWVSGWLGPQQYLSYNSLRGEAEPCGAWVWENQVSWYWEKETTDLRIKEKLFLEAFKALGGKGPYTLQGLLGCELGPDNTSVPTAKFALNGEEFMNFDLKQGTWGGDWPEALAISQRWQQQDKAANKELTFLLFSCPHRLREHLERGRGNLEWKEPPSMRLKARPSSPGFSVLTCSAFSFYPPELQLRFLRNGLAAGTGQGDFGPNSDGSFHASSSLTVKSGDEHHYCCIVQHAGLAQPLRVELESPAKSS
T1 sequence (P61769 21-119 limits assumed, chain 2 of 2): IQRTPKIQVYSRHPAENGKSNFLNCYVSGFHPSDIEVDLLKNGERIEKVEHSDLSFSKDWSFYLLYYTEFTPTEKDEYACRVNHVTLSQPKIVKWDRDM
protocol_notes: ELISA, competitor human IgG
pIC50: −log10 of the molar value.

{"binder": "QRFXTGHXGGLYPCNGP (Pen at 4; 3-MePhe at 8; disulfide; C-terminal amide) [Peptide No. 89]", "pIC50": 5.39}
{"binder": "RFXTGHXGGLYPC (Pen at 3; 3,3-Di-Phe at 7; disulfide; C-terminal amide) [Peptide No. 224]", "pIC50": 4.49}
{"binder": "QRFXTGHXGGLYPCNGP (Pen at 4; 3-PyridylAla at 8; disulfide; C-terminal amide) [Peptide No. 59]", "pIC50": 4.22}
{"binder": "RFXTGHXGGLYPC (Pen at 3; 2-Cl-Phe at 7; disulfide; C-terminal amide) [Peptide No. 221]", "pIC50": 5.40}
{"binder": "QRFXTGHXGGLYPCNGP (Pen at 4; 2-MePhe at 8; disulfide; C-terminal amide) [Peptide No. 88]", "pIC50": 6.00}
{"binder": "QRFXTGHXGGLYPCNGP (Pen at 4; 4-methoxy-Phe at 8; disulfide; C-terminal amide) [Peptide No. 56]", "pIC50": 4.00}
{"binder": "QRFXTGHFGGLYPCNGP (Pen (L-penicillamine) at 4; disulfide; C-terminal amide) [Peptide No. 32]", "pIC50": 5.70}
{"binder": "RFXTGHXGGLYPC (Pen at 3; 3-Cl-Phe at 7; disulfide; C-terminal amide) [Peptide No. 222]", "pIC50": 5.43}
{"binder": "QRFXTGHXGGLYPCNGP (Pen at 4; 2-pyridylalanine at 8; disulfide; C-terminal amide) [Peptide No. 58]", "pIC50": 4.05}
{"binder": "QRFXTGHXGGLYPCNGP (Pen at 4; 2-napthylalanine at 8; disulfide; C-terminal amide) [Peptide No. 62]", "pIC50": 4.05}
{"binder": "QRFXTGHWGGLYPCNGP (Pen at 4; disulfide; C-terminal amide) [Peptide No. 95]", "pIC50": 4.59}

Where do these numbers come from? They come from patent US20070254831A1.
